// data source = ChEMBL document CHEMBL1138143

Below: a set of entries, each annotated with reported pEC50.
# targetSystem: Potassium voltage-gated channel subfamily A member 1 (Homo sapiens)
# Sequence (Q09470 whole entry): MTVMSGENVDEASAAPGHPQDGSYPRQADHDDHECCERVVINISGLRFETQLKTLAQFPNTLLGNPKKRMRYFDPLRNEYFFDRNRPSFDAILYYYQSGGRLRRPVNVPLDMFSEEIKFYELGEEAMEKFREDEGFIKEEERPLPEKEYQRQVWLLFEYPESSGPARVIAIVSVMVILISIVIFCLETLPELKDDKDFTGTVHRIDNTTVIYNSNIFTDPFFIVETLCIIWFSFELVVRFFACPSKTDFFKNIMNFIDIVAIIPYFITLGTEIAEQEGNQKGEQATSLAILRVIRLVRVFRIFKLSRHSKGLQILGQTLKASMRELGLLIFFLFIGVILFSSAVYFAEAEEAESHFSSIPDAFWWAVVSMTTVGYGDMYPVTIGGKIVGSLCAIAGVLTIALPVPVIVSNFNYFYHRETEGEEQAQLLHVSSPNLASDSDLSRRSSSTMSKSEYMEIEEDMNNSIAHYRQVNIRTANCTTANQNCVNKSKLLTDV
# testSummary: Effect on blockade of Kv1.1 channel
The scale used: pEC50 is minus the common logarithm of the concentration in molar units.

Entry "COc1c(O)c(C(C)=O)c(OCc2ccc(Cl)cc2)c2ccoc12" , tested on Potassium voltage-gated channel subfamily A member 1 (Homo sapiens), has a reported pEC50 of 5.77

Sample "CC(=O)c1c(O)c(OCc2ccccc2)c2occc2c1OCc1ccccc1" , system: Potassium voltage-gated channel subfamily A member 1 (Homo sapiens). Its pEC50 is 5.15

The molecule "COc1c(C(C)=O)c(O)c(OCc2ccc(Br)cc2)c2occc12" , when measured on Potassium voltage-gated channel subfamily A member 1 (Homo sapiens), yielded pEC50 of 5.92
